The values you see were collected from patent US20230270723A1.

experiment_description: Phase I single oral dose pharmacokinetic study of dorzagliatin in subjects with mild or moderate hepatic impairment and healthy subjects (plasma, LC-MS/MS, non-compartmental)
Format: in vivo, human
measurement_context: both sexes, human, plasma, po, 25 mg, single oral dose 25 mg; mild hepatic impairment group; arithmetic mean; read-out: AUCinf

{"molecule": "CC(C)C[C@@H](C(=O)Nc1ccn(C[C@@H](O)CO)n1)N1CC(Oc2ccccc2Cl)=CC1=O [dorzagliatin]", "value_units": "ng·h/mL", "AUC(0-inf)": 2260}

====

experiment_description: Phase I single oral dose pharmacokinetic study of dorzagliatin in subjects with mild or moderate hepatic impairment and healthy subjects (plasma, LC-MS/MS, non-compartmental)
Type: in vivo, human
measurement_context: both sexes, human, plasma, po, 25 mg, single oral dose 25 mg; healthy group; read-out: Cmax, geometric least squares mean
experimental_readout: Cmax (ng/mL)

{"smi": "CC(C)C[C@@H](C(=O)Nc1ccn(C[C@@H](O)CO)n1)N1CC(Oc2ccccc2Cl)=CC1=O", "value_units": "ng/mL", "assay_result": 307}

====

experiment_description: Phase I single oral dose pharmacokinetic study of dorzagliatin in subjects with mild or moderate hepatic impairment and healthy subjects (plasma, LC-MS/MS, non-compartmental)
Assay type: in vivo, human
measurement_context: both sexes, human, plasma, po, 25 mg, single oral dose 25 mg, fasted; moderate hepatic impairment group (Child-Pugh 7-9); arithmetic mean; read-out: Cmax
experimental_readout: Cmax (ng/mL)

{"smi": "CC(C)C[C@@H](C(=O)Nc1ccn(C[C@@H](O)CO)n1)N1CC(Oc2ccccc2Cl)=CC1=O", "value_units": "ng/mL", "assay_result": 370}

====

experiment_description: Phase I single oral dose pharmacokinetic study of dorzagliatin in subjects with mild or moderate hepatic impairment and healthy subjects (plasma, LC-MS/MS, non-compartmental)
Assay type: in vivo, human
measurement_context: both sexes, human, plasma, po, 25 mg, single oral dose 25 mg; healthy group; read-out: AUCinf, geometric least squares mean
experimental_readout: AUC(0-inf) (ng·h/mL)

{"smi": "CC(C)C[C@@H](C(=O)Nc1ccn(C[C@@H](O)CO)n1)N1CC(Oc2ccccc2Cl)=CC1=O", "experimental_readout": "AUC(0-inf)", "assay_result": 1870}

====

experiment_description: Phase I single oral dose pharmacokinetic study of dorzagliatin in subjects with mild or moderate hepatic impairment and healthy subjects (plasma, LC-MS/MS, non-compartmental)
Type: in vivo, human
measurement_context: both sexes, human, plasma, po, 25 mg, single oral dose 25 mg; moderate hepatic impairment group; read-out: AUClast, geometric least squares mean

{"compound": "CC(C)C[C@@H](C(=O)Nc1ccn(C[C@@H](O)CO)n1)N1CC(Oc2ccccc2Cl)=CC1=O [dorzagliatin]", "value_units": "ng·h/mL", "AUC(0-t)": 3370}
